tgt: UniProt:P0A6L2
Sequence (P0A6L2 whole entry): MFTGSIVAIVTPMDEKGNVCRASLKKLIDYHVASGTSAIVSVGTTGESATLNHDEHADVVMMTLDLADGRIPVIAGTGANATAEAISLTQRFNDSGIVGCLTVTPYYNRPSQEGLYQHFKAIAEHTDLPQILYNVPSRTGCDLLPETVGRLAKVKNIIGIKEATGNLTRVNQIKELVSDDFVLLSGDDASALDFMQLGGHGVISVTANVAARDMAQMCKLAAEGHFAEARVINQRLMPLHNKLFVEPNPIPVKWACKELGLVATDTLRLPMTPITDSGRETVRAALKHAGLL
assayComment: Reversible inhibition of Escherichia coli dihydrodipicolinate synthase using pyruvate as substrate
pKi: −log10 of the molar value.

compound	tgt	pKi
O=C(O)C(=O)CBr [BROMOPYRUVATE]	UniProt:P0A6L2	3.80

----------
assayComment: Reversible competitive inhibition of Bacillus subtilis PCI-219 dihydrodipicolinate synthase using pyruvate as substrate after 10 mins by double reciprocal plot analysis
pKi: −log10 of the molar value.

mol	pKi
O=C(O)CCCCC(=O)C(=O)O	3.80
